meta.source: PubChem BioAssay (NCI)

growth overview
- Test system: SR leukemia
- Assay explanation: NCI-60 one-dose screen, 48 h (100 = growth as untreated, 0 = no growth, -100 = all killed)
- Cond: 10 µM unless noted
Compounds without any hit were thinned out: in the full panel of roughly 83,000, 20% have a hit.
Measurement label: growth (%)

molecule="Cc1nc(Nc2ncc(C(=O)Nc3c(C)cccc3Cl)s2)cc(N2CCN(CCCNC(=O)COc3ccc(C4CCC(=O)NC4=O)cc3)CC2)n1 (configuration not stated)" measurement_label=growth display_unit=% experimental_value=20
molecule="C=C1CCC2C3(C)COC(c4cc(F)cc(F)c4)OC3CCC2(C)C1CC(O)C1=CCOC1=O (configuration not stated)" measurement_label=growth display_unit=% experimental_value=28.6
molecule=O=C(Nc1cccc(-n2cnc3cc(-c4ccc(O)cc4)ccc32)c1)C1CC1 measurement_label=growth display_unit=% experimental_value=21.6
molecule="CC12CC[C@@H]3[C@]4(C)COC(c5c(F)cccc5F)O[C@@H]4CC[C@@]3(C)[C@@H]1CC(C1=CCOC1=O)O2 (some centres not stated)" measurement_label=growth display_unit=% experimental_value=55.6
molecule=CN(C)CCCNC(=O)c1cc(NC(=O)c2cc(NC(=O)c3ccc(/C=C/c4ccccc4)cc3)cn2C)cn1C measurement_label=growth display_unit=% experimental_value=-30.3
molecule="O=C(C1=CNC(=S)NC1c1ccc(O)cc1)c1cc2ccccc2oc1=O (configuration not stated)" measurement_label=growth display_unit=% experimental_value=75.5
molecule=CC(C)Sc1nc(NCCc2c[nH]c3ccccc23)c(C#N)c(-c2ccccc2)n1 measurement_label=growth display_unit=% experimental_value=-17.2
molecule=S=c1c2ccccc2nc2n1CCc1c-2[nH]c2ccccc12 measurement_label=growth display_unit=% experimental_value=67.7
molecule=CSc1ccccc1NC(=O)c1ccc2nn(/C(C#N)=C/c3ccccn3)nc2c1 measurement_label=growth display_unit=% experimental_value=1.1
molecule="CC1=C(C(=O)OCc2ccccc2)C(c2ccc(-n3cncn3)cc2)n2c(nc3ccccc32)N1 (configuration not stated)" measurement_label=growth display_unit=% experimental_value=18
molecule=O=c1[nH]c2ccccc2cc1CSc1cccc(Nc2nccc(-c3ccc4ccccc4c3)n2)c1 measurement_label=growth display_unit=% experimental_value=89.5
molecule=CC(=O)Nc1ccc(-n2cnc3ccc(-c4ccc(O)cc4)cc32)cc1 measurement_label=growth display_unit=% experimental_value=15.8
molecule=N/C(=N\c1nc2ccccc2s1)NC(=O)Nc1ccc(Cl)cc1Cl measurement_label=growth display_unit=% experimental_value=5.8
molecule=Cn1cc(-c2nc(N)nnc2-c2c[nH]c3ccc(F)cc23)c2cccnc21 measurement_label=growth display_unit=% experimental_value=17.8
molecule=CN(C)c1ccnc(NCCCSC(c2ccccc2)(c2ccccc2)c2ccccc2)c1 measurement_label=growth display_unit=% experimental_value=-55.5
molecule=Cc1c(C(=O)NNC(=O)c2ccc(Cl)cc2)nnn1-c1ccc(Cl)cc1 measurement_label=growth display_unit=% experimental_value=84.4
molecule=Cc1ccc(C(=O)CSc2nc3ccc(F)cc3c(=O)n2-c2ccc(Cl)cc2)cc1 measurement_label=growth display_unit=% experimental_value=93.9
molecule="COc1ccc(C2=NN(C(C)=O)C(c3ccc(OCc4ccc(Cl)cc4)c(OC)c3)C2)cc1OC (configuration not stated)" measurement_label=growth display_unit=% experimental_value=52.4
molecule=COc1ccc2c(c1)c(-c1cc(N)n3nc(-c4cn(C)c5ccccc45)cc3n1)cn2C measurement_label=growth display_unit=% experimental_value=6.15
molecule="CC1(C)CC[C@]2(C(=O)O)CC[C@]3(C)C(=CCC4[C@@]5(C)C[C@@H](O)[C@@H]6OC(c7ccccc7Br)OC[C@@]6(C)C5CC[C@]43C)C2C1 (some centres not stated)" measurement_label=growth display_unit=% experimental_value=12.5
molecule=COc1ccc(NC(=O)Nc2ccc(OCc3ccc(F)cc3)cc2)cc1 measurement_label=growth display_unit=% experimental_value=78.7
molecule=COc1ccc2c(c1)C(=N/N=C(\C)c1ccc(OC)c(S(N)(=O)=O)c1)C(=O)N2 measurement_label=growth display_unit=% experimental_value=83.2
molecule=COc1ccc(C2(SCCNCc3cc(N(C)C)ccn3)c3ccccc3C=Cc3ccccc32)cc1 measurement_label=growth display_unit=% experimental_value=-28.5
molecule=N#Cc1c(-c2cccc(Cl)c2Cl)cc(-c2c[nH]c3ccccc23)[nH]c1=O measurement_label=growth display_unit=% experimental_value=42.3
molecule="CC1(c2cc3cc(Br)ccc3oc2=O)NC(=O)c2c(/C=C/C(=O)OC3CC4CCC3(C)C4(C)C)cccc2N1 (configuration not stated)" measurement_label=growth display_unit=% experimental_value=66.8
molecule="O=C(c1ccc(OCCN2CCOCC2)cc1)C1[C@H](c2ccc(Cl)cc2)[C@@H](c2ccccc2)NC12C(=O)Nc1ccc(Br)cc12 (some centres not stated)" measurement_label=growth display_unit=% experimental_value=-45.3
molecule=CN(C)c1ccnc(CNCCSC2(c3ccccc3)c3ccccc3C=Cc3ccccc32)c1 measurement_label=growth display_unit=% experimental_value=-52.6
molecule=N/C(=N\N=C\c1ccc([N+](=O)[O-])cc1)c1c(N)nc(=S)[nH]c1-c1ccc(Cl)cc1Cl measurement_label=growth display_unit=% experimental_value=76.9
molecule=O=C(Cn1c(/C=C/c2ccccc2)nc2ccccc2c1=O)Nc1ccccc1 measurement_label=growth display_unit=% experimental_value=80.3
molecule="COc1c(F)ccc(C(=O)Nc2ccc3nc(NC(=O)C4CCCN(S(=O)(=O)c5ccc(C(F)(F)F)cc5)C4)sc3c2)c1F (configuration not stated)" measurement_label=growth display_unit=% experimental_value=43.4
molecule=O=c1[nH]n(C(=S)N/N=C/c2ccccc2Cl)c(=O)c2ccccc12 measurement_label=growth display_unit=% experimental_value=-13.8
molecule=N/N=C(\N)c1c(N)nc(=S)[nH]c1-c1ccc(Cl)cc1Cl measurement_label=growth display_unit=% experimental_value=97.3
molecule=N#Cc1c(-c2ccccc2Cl)cc(-c2ccc3ccccc3c2)[nH]c1=O measurement_label=growth display_unit=% experimental_value=48.9
molecule=CCN(CC)c1ccnc(CNCCSC(c2ccccc2)(c2ccccc2)c2ccc(C)cc2)c1 measurement_label=growth display_unit=% experimental_value=-60.8
molecule=S=C(Nc1ccccc1)Nc1ccc(OCc2nc3ccccc3[nH]2)cc1 measurement_label=growth display_unit=% experimental_value=32.5
molecule=N#Cc1c(-c2ccc(Br)cc2)nc2n[nH]c(-c3ccc(Br)cc3)c2c1-c1ccc(C(F)(F)F)cc1 measurement_label=growth display_unit=% experimental_value=-11.6
molecule=CSc1ccc(NC(=O)c2ccc3nn(/C(C#N)=C/c4ccccn4)nc3c2)cc1 measurement_label=growth display_unit=% experimental_value=-6.88
